Origin of the recorded values: ChEMBL document CHEMBL1153280

- Tested on: Staphylococcus aureus
- Experimental details: Antibacterial activity against Staphylococcus aureus ATCC 29213 by NCCLS method
- Type: functional
So basically: is MIC under 1 µg/mL? Then yes. Not under? Then no.

{"Molecule": "CC(C)NC(=N)c1ccc2[nH]c(-c3ccc(CCc4ccc(-c5nc6cc(C(=N)NC(C)C)ccc6[nH]5)cc4)cc3)nc2c1", "Group label": "yes"}
{"Molecule": "c1cc(-c2nc3cc(C4=NCCN4)ccc3[nH]2)ccc1CCc1ccc(-c2nc3cc(C4=NCCN4)ccc3[nH]2)cc1", "Group label": "no"}
{"Molecule": "CC(C)NC(=N)c1ccc2[nH]c(-c3ccc(CCc4ccc(-c5nc6cc(C(=N)NC(C)C)ccc6[nH]5)nc4)cc3)nc2c1", "Group label": "no"}
{"Molecule": "N=C(N)c1ccc2[nH]c(-c3ccc(CCc4ccc(-c5nc6cc(C(=N)N)ccc6[nH]5)cc4)cc3)nc2c1", "Group label": "no"}
{"Molecule": "N=C(c1ccc2[nH]c(-c3ccc(CCc4ccc(-c5nc6cc(C(=N)N7CCCC7)ccc6[nH]5)cc4)cc3)nc2c1)N1CCCC1", "Group label": "yes"}
{"Molecule": "CC(C)NC(=N)c1ccc2[nH]c(-c3ccc(CCc4ccc(-c5nc6ccccc6[nH]5)cc4)cc3)nc2c1", "Group label": "no"}
{"Molecule": "CCCCNC(=N)c1ccc2[nH]c(-c3ccc(CCc4ccc(-c5nc6cc(C(=N)NCCCC)ccc6[nH]5)cc4)cc3)nc2c1", "Group label": "no"}
{"Molecule": "O=C(O)c1cn(C2CC2)c2cc(N3CCNCC3)c(F)cc2c1=O [CIPROFLOXACIN]", "Group label": "yes"}
{"Molecule": "CC(C)NC(=N)c1ccc(CCc2ccc(-c3nc4cc(C(=N)NC(C)C)ccc4[nH]3)cc2)cc1", "Group label": "no"}
{"Molecule": "N=C(NC1CC1)c1ccc2[nH]c(-c3ccc(CCc4ccc(-c5nc6cc(C(=N)NC7CC7)ccc6[nH]5)cc4)cc3)nc2c1", "Group label": "no"}
{"Molecule": "CC(C)NC(=N)c1ccc2[nH]c(-c3ccc(CCc4ccc(-c5nc6cc(C(=N)NC(C)C)ccc6[nH]5)cn4)cc3)nc2c1", "Group label": "no"}
{"Molecule": "COc1ccc(CCc2ccc(-c3nc4ccc(C(=N)NC(C)C)cc4[nH]3)cc2)cc1", "Group label": "no"}

* * *

Measured MIC, listed per entry.
- Tested on: Staphylococcus epidermidis
- Experimental details: Antibacterial activity against methicillin-resistant Staphylococcus epidermidis ATCC 51625 by NCCLS method
- Type: functional

{"Compound": "CC(C)NC(=N)c1ccc2[nH]c(-c3ccc(CCc4ccc(-c5nc6cc(C(=N)NC(C)C)ccc6[nH]5)cc4)cc3)nc2c1", "Unit label": "µg/mL", "Bound operator": "=", "MIC": 0.125}
{"Compound": "N=C(c1ccc2[nH]c(-c3ccc(CCc4ccc(-c5nc6cc(C(=N)N7CCCC7)ccc6[nH]5)cc4)cc3)nc2c1)N1CCCC1", "Unit label": "µg/mL", "Bound operator": "=", "MIC": 0.25}
{"Compound": "CCC(C)NC(=N)c1ccc2[nH]c(-c3ccc(CCc4ccc(-c5nc6cc(C(=N)NC(C)CC)ccc6[nH]5)cc4)cc3)nc2c1 (configuration not stated)", "Unit label": "µg/mL", "Bound operator": "=", "MIC": 0.12}
{"Compound": "N=C(N)c1ccc2[nH]c(-c3ccc(CCc4ccc(-c5nc6cc(C(=N)N)ccc6[nH]5)cc4)cc3)nc2c1", "Unit label": "µg/mL", "Bound operator": "=", "MIC": 32}
{"Compound": "c1cc(-c2nc3cc(C4=NCCN4)ccc3[nH]2)ccc1CCc1ccc(-c2nc3cc(C4=NCCN4)ccc3[nH]2)cc1", "Unit label": "µg/mL", "Bound operator": ">", "MIC": 64}
{"Compound": "CC(C)NC(=N)c1ccc2[nH]c(-c3ccc(CCc4ccc(-c5nc6cc(C(=N)NC(C)C)ccc6[nH]5)nc4)cc3)nc2c1", "Unit label": "µg/mL", "Bound operator": "=", "MIC": 1}
{"Compound": "CC(C)NC(=N)c1ccc2[nH]c(-c3ccc(CCc4ccc(-c5nc6cc(C(=N)NC(C)C)ccc6[nH]5)s4)cc3)nc2c1", "Unit label": "µg/mL", "Bound operator": "=", "MIC": 0.12}
{"Compound": "O=C(O)c1cn(C2CC2)c2cc(N3CCNCC3)c(F)cc2c1=O", "Unit label": "µg/mL", "Bound operator": "≤", "MIC": 0.12}
{"Compound": "CC1(C)S[C@@H]2[C@H](NC(=O)Cc3ccccc3)C(=O)N2[C@H]1C(=O)O", "Unit label": "µg/mL", "Bound operator": "=", "MIC": 32}
{"Compound": "N=C(NC1CC1)c1ccc2[nH]c(-c3ccc(CCc4ccc(-c5nc6cc(C(=N)NC7CC7)ccc6[nH]5)cc4)cc3)nc2c1", "Unit label": "µg/mL", "Bound operator": "=", "MIC": 0.25}
{"Compound": "CC(C)NC(=N)c1ccc2[nH]c(-c3ccc(CCc4cc(-c5nc6cc(C(=N)NC(C)C)ccc6[nH]5)cs4)cc3)nc2c1", "Unit label": "µg/mL", "Bound operator": "=", "MIC": 0.25}
{"Compound": "N=C(NC1CCCC1)c1ccc2[nH]c(-c3ccc(CCc4ccc(-c5nc6cc(C(=N)NC7CCCC7)ccc6[nH]5)cc4)cc3)nc2c1", "Unit label": "µg/mL", "Bound operator": "=", "MIC": 0.12}
{"Compound": "CC(C)NC(=N)c1ccc2[nH]c(-c3ccc(CCc4ccc(-c5nc6ccccc6[nH]5)cc4)cc3)nc2c1", "Unit label": "µg/mL", "Bound operator": "=", "MIC": 8}
{"Compound": "COc1ccc(CCc2ccc(-c3nc4ccc(C(=N)NC(C)C)cc4[nH]3)cc2)cc1", "Unit label": "µg/mL", "Bound operator": "=", "MIC": 4}
{"Compound": "CC(C)NC(=N)c1ccc2[nH]c(-c3ccc(CCc4ccc(-c5nc6cc(C(=N)NC(C)C)ccc6[nH]5)cn4)cc3)nc2c1", "Unit label": "µg/mL", "Bound operator": "=", "MIC": 4}
{"Compound": "CC(C)NC(=N)c1ccc(CCc2ccc(-c3nc4cc(C(=N)NC(C)C)ccc4[nH]3)cc2)cc1", "Unit label": "µg/mL", "Bound operator": "=", "MIC": 1}
{"Compound": "CCCCNC(=N)c1ccc2[nH]c(-c3ccc(CCc4ccc(-c5nc6cc(C(=N)NCCCC)ccc6[nH]5)cc4)cc3)nc2c1", "Unit label": "µg/mL", "Bound operator": "=", "MIC": 0.5}

* * *

- Tested on: Bacillus subtilis
- Experimental details: Antibacterial activity against Bacillus subtilis ATCC 23857 by NCCLS method
- Type: functional
Measurement type: MIC (µg/mL)

{"Compound": "CCC(C)NC(=N)c1ccc2[nH]c(-c3ccc(CCc4ccc(-c5nc6cc(C(=N)NC(C)CC)ccc6[nH]5)cc4)cc3)nc2c1 (stereo not drawn)", "Bound operator": "=", "Endpoint value": 0.25}
{"Compound": "CC(C)NC(=N)c1ccc2[nH]c(-c3ccc(CCc4cc(-c5nc6cc(C(=N)NC(C)C)ccc6[nH]5)cs4)cc3)nc2c1", "Bound operator": "=", "Endpoint value": 0.5}
{"Compound": "CC(C)NC(=N)c1ccc2[nH]c(-c3ccc(CCc4ccc(-c5nc6ccccc6[nH]5)cc4)cc3)nc2c1", "Bound operator": ">", "Endpoint value": 32}
{"Compound": "CC(C)NC(=N)c1ccc2[nH]c(-c3ccc(CCc4ccc(-c5nc6cc(C(=N)NC(C)C)ccc6[nH]5)s4)cc3)nc2c1", "Bound operator": "=", "Endpoint value": 0.5}
{"Compound": "COc1ccc(CCc2ccc(-c3nc4ccc(C(=N)NC(C)C)cc4[nH]3)cc2)cc1", "Bound operator": "=", "Endpoint value": 4}
{"Compound": "c1cc(-c2nc3cc(C4=NCCN4)ccc3[nH]2)ccc1CCc1ccc(-c2nc3cc(C4=NCCN4)ccc3[nH]2)cc1", "Bound operator": ">", "Endpoint value": 64}
{"Compound": "CC(C)NC(=N)c1ccc(CCc2ccc(-c3nc4cc(C(=N)NC(C)C)ccc4[nH]3)cc2)cc1", "Bound operator": "=", "Endpoint value": 1}
{"Compound": "N=C(NC1CC1)c1ccc2[nH]c(-c3ccc(CCc4ccc(-c5nc6cc(C(=N)NC7CC7)ccc6[nH]5)cc4)cc3)nc2c1", "Bound operator": "=", "Endpoint value": 1}

* * *

- Test system: Enterococcus faecium
- Experimental details: Antibacterial activity against vancomycin-resistant Enterococcus faecium ATCC 700221 by NCCLS method
- Type: functional
Measured MIC, listed per entry.

{"Chemical structure": "N=C(NC1CC1)c1ccc2[nH]c(-c3ccc(CCc4ccc(-c5nc6cc(C(=N)NC7CC7)ccc6[nH]5)cc4)cc3)nc2c1", "MIC": "1 µg/mL"}
{"Chemical structure": "N=C(N)c1ccc2[nH]c(-c3ccc(CCc4ccc(-c5nc6cc(C(=N)N)ccc6[nH]5)cc4)cc3)nc2c1", "MIC": "32 µg/mL"}
{"Chemical structure": "CC(C)NC(=N)c1ccc2[nH]c(-c3ccc(CCc4ccc(-c5nc6cc(C(=N)NC(C)C)ccc6[nH]5)cn4)cc3)nc2c1", "MIC": "16 µg/mL"}
{"Chemical structure": "CCCCNC(=N)c1ccc2[nH]c(-c3ccc(CCc4ccc(-c5nc6cc(C(=N)NCCCC)ccc6[nH]5)cc4)cc3)nc2c1", "MIC": "2 µg/mL"}
